- experiment: Volume of distribution at steady state in rat at 0.68 mg/kg, iv or 1.36 mg/kg, po
- Format: ADME, organism-based
- assayConditions: in vivo, read-out: Vdss
reportedProperty: Vd (L/kg)

structureAsSmiles | resultUnit | resultNumber
COC(=O)Nc1ccc2c(c1)NC(=O)CC/C=C/C[C@H](N1CC[C@H](c3cccc(Cl)c3)OC1=O)c1nc-2c[nH]1 | L/kg | 1.3

* * *

- experiment: Half life in rat at 0.63 mg/kg, iv or 1.27 mg/kg, po
- Format: ADME, organism-based
- assayConditions: in vivo

structureAsSmiles | half-life, min
COC(=O)Nc1ccc2c(c1)NC(=O)CC/C=C/C[C@H](N1CC[C@H](c3cccc(Cl)c3)CC1=O)c1nc-2c[nH]1 | 30

* * *

- experiment: Volume of distribution at steady state in rat at 0.79 mg/kg, iv or 1.58 mg/kg, po
- Assay type: ADME, organism-based
- assayConditions: in vivo, read-out: Vdss
reportedProperty: Vd (L/kg)

structureAsSmiles | resultNumber
COC(=O)Nc1ccc2c(c1)NC(=O)CC/C=C/C[C@H](NC(=O)/C=C/c1cc(Cl)ccc1-n1cnnn1)c1nc-2c[nH]1 | 0.7

* * *

- experiment: Half life in rat at […], iv or 1.04 mg/kg, po
- Type: ADME, organism-based
- assayConditions: in vivo

structureAsSmiles | half-life / h
COC(=O)Nc1ccc2c(c1)NC(=O)CC/C=C/C[C@H](NC(=O)/C=C/c1cccc(Cl)c1)c1nc-2c[nH]1 | 1.4

* * *

- experiment: Clearance in rat at 0.68 mg/kg, iv or 1.36 mg/kg, po
- Type: ADME, organism-based
- assayConditions: in vivo
reportedProperty: clearance (mL/min/kg)

structureAsSmiles | resultNumber
COC(=O)Nc1ccc2c(c1)NC(=O)CC/C=C/C[C@H](N1CC[C@H](c3cccc(Cl)c3)OC1=O)c1nc-2c[nH]1 | 40

* * *

- experiment: Half life in rat liver microsomes
- Format: ADME, Microsome
Mark 1.0 for half-life under 30 min, 0.0 if at or over.

structureAsSmiles | cat
COC(=O)Nc1ccc2c(c1)NC(=O)CC/C=C/C[C@H](N1CC[C@H](c3cc(Cl)ccc3C(F)(F)F)OC1=O)c1nc-2c(Cl)[nH]1 | 0.0
COC(=O)Nc1ccc2c(c1)NC(=O)CC/C=C/C[C@H](N1CC[C@H](c3c(F)ccc(Cl)c3F)OC1=O)c1nc-2c[nH]1 | 1.0
COC(=O)Nc1ccc2c(c1)NC(=O)CC/C=C/C[C@H](NC(=O)/C=C/c1cccc(Cl)c1)c1nc-2c[nH]1 | 0.0
[2H][C@]1(c2c(F)ccc(Cl)c2F)CCN([C@H]2C/C=C/CCC(=O)Nc3cc(NC(=O)OC)ccc3-c3nc2[nH]c3Cl)C(=O)O1 | 0.0
COC(=O)Nc1ccc2c(c1)NC(=O)CC/C=C/C[C@H](N1CC[C@H](c3cccc(Cl)c3)CC1=O)c1nc-2c[nH]1 | 1.0

* * *

- experiment: Half life in human liver microsomes
- Format: ADME, Microsome
reportedProperty: half-life (min)

structureAsSmiles | resultNumber
COC(=O)Nc1ccc2c(c1)NC(=O)CC/C=C/C[C@H](N1CC[C@H](c3c(F)ccc(Cl)c3F)OC1=O)c1nc-2c[nH]1 | 8
COC(=O)Nc1ccc2c(c1)NC(=O)CC/C=C/C[C@H](N1CC[C@H](c3cc(Cl)ccc3F)OC1=O)c1nc-2c(Cl)[nH]1 | 5
COC(=O)Nc1ccc2c(c1)NC(=O)CC/C=C/C[C@H](NC(=O)/C=C/c1cccc(Cl)c1)c1nc-2c[nH]1 | 32
COC(=O)Nc1ccc2c(c1)NC(=O)CC/C=C/C[C@H](N1CC[C@H](c3c(F)ccc(Cl)c3F)CC1=O)c1nc-2c[nH]1 | 9
COC(=O)Nc1ccc2c(c1)NC(=O)CC/C=C/C[C@H](N1CC[C@H](c3cccc(Cl)c3)OC1=O)c1nc-2c(Cl)[nH]1 | 11
COC(=O)Nc1ccc2c(c1)NC(=O)CC/C=C/C[C@H](N1CC[C@H](c3cccc(Cl)c3)CC1=O)c1nc-2c[nH]1 | 6

* * *

- experiment: Clearance in rat at 0.79 mg/kg, iv or 1.58 mg/kg, po
- Type: ADME, organism-based
- assayConditions: in vivo
reportedProperty: clearance (mL/min/kg)

structureAsSmiles | reportedProperty | resultNumber
COC(=O)Nc1ccc2c(c1)NC(=O)CC/C=C/C[C@H](NC(=O)/C=C/c1cc(Cl)ccc1-n1cnnn1)c1nc-2c[nH]1 | clearance | 28

The measured values listed here are drawn from ChEMBL document CHEMBL4396948.
